Tested on: E. coli MG1655 GyrA S83L, D87N ParC S80I, E84G
Assay: microbe, parasite or virus in culture
Type: cell-based, Escherichia coli
Conditions: Escherichia coli, MG1655, read-out: Minimum Inhibitory Concentration E. coli MG# GyrA S83L, D87N ParC S80I, E84G
We begin with a simple list: items and their reported MIC.
PROPERTY LABEL: MIC (µM)

>>> endpoint_value("Cc1[nH]c(C(=O)Nc2nc3ccc(C(=O)N4CCN(c5cc6c(cc5F)c(=O)c(C(=O)O)cn6C5CC5)CC4)cc3s2)c(Cl)c1Cl")
23.4
>>> endpoint_value("Cc1[nH]c(C(=O)Nc2nc3ccc(C(=O)NCCC(=O)N4CCN(c5cc6c(cc5F)c(=O)c(C(=O)O)cn6C5CC5)CC4)cc3s2)c(Cl)c1Cl")
1.32
>>> endpoint_value("Cc1[nH]c(C(=O)Nc2nc3ccc(C(=O)NCC(=O)N4CCN(c5cc6c(cc5F)c(=O)c(C(=O)O)cn6C5CC5)CC4)cc3s2)c(Cl)c1Cl")
0.675

----------
Target: E. coli topoisomerase IV (Escherichia coli, UniProt P0AFI2+P20083)
Assay: E. coli topoisomerase IV relaxation assay
PROPERTY LABEL: IC50 (µM)

>>> endpoint_value("Cc1[nH]c(C(=O)Nc2nc3c(OCc4ccccc4)cc(C(=O)NCCOCCN4CCN(c5cc6c(cc5F)c(=O)c(C(=O)O)cn6C5CC5)CC4)cc3s2)c(Cl)c1Cl.Cl [Compound 11b]")
2.5
>>> endpoint_value("Cc1[nH]c(C(=O)Nc2nc3ccc(C(=O)NCCC(=O)N4CCN(c5cc6c(cc5F)c(=O)c(C(=O)O)cn6C5CC5)CC4)cc3s2)c(Cl)c1Cl")
3.1
>>> endpoint_value("Cc1[nH]c(C(=O)Nc2nc3ccc(C(=O)NCC(=O)N4CCN(c5cc6c(cc5F)c(=O)c(C(=O)O)cn6C5CC5)CC4)cc3s2)c(Cl)c1Cl")
2.5
>>> endpoint_value("Cc1[nH]c(C(=O)Nc2nc3ccc(C(=O)O)cc3s2)c(Cl)c1Cl [Compound 1a, reference compound]")
0.5
>>> endpoint_value("Cc1[nH]c(C(=O)Nc2nc3ccc(C(=O)N4CCN(c5cc6c(cc5F)c(=O)c(C(=O)O)cn6C5CC5)CC4)cc3s2)c(Cl)c1Cl")
1

----------
Tested on: E. coli BW25113 WT
Test: MIC, E. coli BW25113 wild-type
Assay type: cell-based
Settings: Escherichia coli, BW25113, read-out: Minimum Inhibitory Concentration E. coli BW# WT; molar conversion in parentheses
We begin with a simple list: items and their reported MIC.
PROPERTY LABEL: MIC (µM)

>>> endpoint_value("Cc1[nH]c(C(=O)Nc2nc3ccc(C(=O)N4CCN(c5cc6c(cc5F)c(=O)c(C(=O)O)cn6C5CC5)CC4)cc3s2)c(Cl)c1Cl")
5.85
>>> endpoint_value("Cc1[nH]c(C(=O)Nc2nc3c(OCc4ccccc4)cc(C(=O)NCCOCCN4CCN(c5cc6c(cc5F)c(=O)c(C(=O)O)cn6C5CC5)CC4)cc3s2)c(Cl)c1Cl.Cl [Compound 11b]")
9.11
>>> endpoint_value("Cc1[nH]c(C(=O)Nc2nc3ccc(C(=O)NCCOCCN4CCN(c5cc6c(cc5F)c(=O)c(C(=O)O)cn6C5CC5)CC4)cc3s2)c(Cl)c1Cl.Cl [Compound 11a]")
41.5
